- Test Target: TYK2 (Homo sapiens, UniProt P29597)
- Sequence (P29597 whole entry): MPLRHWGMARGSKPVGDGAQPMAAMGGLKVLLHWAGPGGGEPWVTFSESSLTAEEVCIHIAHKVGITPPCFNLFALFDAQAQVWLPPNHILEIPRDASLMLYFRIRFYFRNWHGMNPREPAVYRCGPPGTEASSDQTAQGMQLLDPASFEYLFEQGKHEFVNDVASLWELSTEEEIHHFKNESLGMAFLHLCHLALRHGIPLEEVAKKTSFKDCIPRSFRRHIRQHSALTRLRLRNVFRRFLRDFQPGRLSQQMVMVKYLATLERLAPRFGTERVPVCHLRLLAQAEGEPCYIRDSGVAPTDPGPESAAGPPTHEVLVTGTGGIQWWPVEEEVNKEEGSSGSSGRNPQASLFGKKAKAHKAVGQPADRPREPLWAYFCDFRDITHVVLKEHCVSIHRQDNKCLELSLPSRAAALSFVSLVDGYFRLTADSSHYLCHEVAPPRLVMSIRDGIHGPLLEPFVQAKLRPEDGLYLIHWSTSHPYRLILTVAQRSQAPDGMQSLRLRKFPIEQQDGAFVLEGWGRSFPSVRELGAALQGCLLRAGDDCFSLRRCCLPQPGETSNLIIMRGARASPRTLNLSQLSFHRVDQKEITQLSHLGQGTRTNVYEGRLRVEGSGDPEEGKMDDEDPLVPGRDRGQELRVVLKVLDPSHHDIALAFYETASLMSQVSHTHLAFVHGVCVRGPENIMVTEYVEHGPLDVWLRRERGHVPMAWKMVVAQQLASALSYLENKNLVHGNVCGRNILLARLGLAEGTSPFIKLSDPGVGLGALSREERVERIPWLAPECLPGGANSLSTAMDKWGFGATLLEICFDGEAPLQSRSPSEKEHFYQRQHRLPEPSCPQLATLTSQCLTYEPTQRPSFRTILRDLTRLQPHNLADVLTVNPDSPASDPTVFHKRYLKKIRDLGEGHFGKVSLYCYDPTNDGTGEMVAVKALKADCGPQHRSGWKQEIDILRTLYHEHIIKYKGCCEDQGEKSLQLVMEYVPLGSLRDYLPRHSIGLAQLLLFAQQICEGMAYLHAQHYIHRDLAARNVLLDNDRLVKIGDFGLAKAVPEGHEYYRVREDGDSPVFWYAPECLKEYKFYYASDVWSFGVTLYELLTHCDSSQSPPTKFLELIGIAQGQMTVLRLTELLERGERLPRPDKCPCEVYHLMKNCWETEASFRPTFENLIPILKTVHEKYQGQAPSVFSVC
- Protocol: TYK2 degradation MSD assay in EBV-B cells
- Type: cell-based
- Parameters: endogenous in cells; host or cells: EBV-B cells
- Details: 4 to 24 hours incubation, read-out: TYK2 MSD DC50 rating in EBV-B
Metric: DC50

>>> measured_value("Cn1c(=O)n(C2CCC(=O)NC2=O)c2ccc(-c3ccc(N4CCN(Cc5ccc(-c6cccc(Nc7ccc8ncc(C(=O)NC9CC9)n8n7)c6)nc5)CC4=O)nc3)cc21 (centres unmarked)")
"> 0.1 µM"
>>> measured_value("CNc1cc(-c2cccc(C(=O)NCCCCCCCCc3cccc4c3n(C)c(=O)n4C3CCC(=O)NC3=O)c2)nn2c(C(=O)N[C@@H]3C[C@@H]3F)cnc12 (some centres unmarked)")
"> 0.1 µM"
>>> measured_value("CNc1cc(Nc2cccn(-c3ccc(C(=O)N4CCCC5(C4)CN(c4ncc(C#Cc6ccc7c(c6)n(C)c(=O)n7C6CCC(=N)NC6=O)cn4)C5)cn3)c2=O)nn2c(C(=O)N[C@@H]3C[C@@H]3F)cnc12 (some centres unmarked)")
"0.001 to 0.01 µM"
>>> measured_value("CNC(=O)c1cnc(Nc2cc(C(=O)NCCCCCCc3ccc4c(c3)n(C)c(=O)n4C3CCC(=O)NC3=O)ccn2)cc1Nc1cccc(-c2ncc(F)cn2)c1OC (centres unmarked)")
"> 0.1 µM"
>>> measured_value("CNc1cc(Nc2cccc(-c3ccc(CN4CCN(c5ccc(-c6ccc7c(c6)n(C)c(=O)n7C6CCC(=O)NC6=O)cc5)CC4)cn3)c2OC)nn2c(C(=O)N[C@@H]3C[C@@H]3F)cnc12 (some centres unmarked)")
"< 0.001 µM"

Quick check: DC50 of CNc1cc(Nc2cccc(CN3CC(C)(Cc4ccc5c(c4)n(C)c(=O)n5C4CCC(=O)NC4=O)C3)c2)nn2c(C(=O)NC3CC3)cnc12 (centres unmarked) ? > 0.1 µM

Quick check: DC50 of CNc1cc(Nc2cccc(C(=O)NCCCCCCc3ccc4c(c3)n(C)c(=O)n4C3CCC(=O)NC3=O)c2)nn2c(C(=O)N[C@@H]3C[C@@H]3F)cnc12 (some centres unmarked) ? > 0.1 µM

Quick check: DC50 of CNc1cc(Nc2cccn(-c3cccc(C(=O)NCCOCCOCCOCCOCCc4ccc5c(c4)n(C)c(=O)n5C4CCC(=O)NC4=O)c3)c2=O)nn2c(C(=O)N[C@@H]3C[C@@H]3F)cnc12 (some centres unmarked) ? > 0.1 µM

###

- Test Target: TYK2 (Homo sapiens, UniProt P29597)
- Protocol: TYK2 degradation MSD assay in OCI-LY10 cells
- Format: cell-based
- Design: endogenous in cells; host or cells: EBV-B cells
- Details: 4 to 24 hours incubation, read-out: TYK2 MSD DC50 rating in OCI-LY10
Metric: DC50

The following compounds have reported results that may help.
>>> measured_value("CNc1cc(Nc2cccn(-c3ccc(C(=O)NCCCCCCCCCCc4ccc5c(c4)n(C)c(=O)n5C4CCC(=O)NC4=O)cn3)c2=O)nn2c(C(=O)N[C@@H]3C[C@@H]3F)cnc12 (some centres unmarked)")
"> 100 nM"
>>> measured_value("CNc1cc(Nc2cccn(-c3ccc(C(=O)NCCCCc4cncc(N5CCC[C@H](C(=O)Nc6ccc(=O)n(CC(=O)O)c6)C5)c4)cn3)c2=O)nn2c(C(=O)N[C@@H]3C[C@@H]3F)cnc12")
"> 100 nM"
>>> measured_value("Cn1c(=O)n(C2CCC(=O)NC2=O)c2ccc(CCOCCOCCNc3cc(Nc4cccn(-c5ccccn5)c4=O)nn4c(C(=O)N[C@@H]5C[C@@H]5F)cnc34)cc21 (some centres unmarked)")
"> 100 nM"
>>> measured_value("CNc1cc(Nc2cccc(-c3ccc(CN4CC5(C4)CN(c4ccc(-c6ccc7c(c6)n(C)c(=O)n7C6CCC(=O)NC6=O)cc4)C5)cn3)c2)nn2c(C(=O)N[C@@H]3C[C@@H]3F)cnc12 (some centres unmarked)")
"< 1 nM"

Let us examine a further case.
Quick check: DC50 of CNC(=O)c1cnc(NC(=O)NCCCCCCCc2cccc3c2n(C)c(=O)n3C2CCC(=O)NC2=O)cc1Nc1cccc(-c2ncc(F)cn2)c1OC (centres unmarked) ? > 100 nM

###

- Test Target: TYK2 (Homo sapiens, UniProt P29597)
- Protocol: TYK2 degradation MSD assay in EBV-B cells
- Type: cell-based
- Design: endogenous in cells; host or cells: EBV-B cells
- Details: 4 to 24 hours incubation, read-out: TYK2 MSD DC50 rating in EBV-B
Metric: DC50

The following molecules have reported results that may help.
>>> measured_value("CNc1cc(Nc2cccc(C(=O)NCCCCCCCCc3cccc4c3n(C)c(=O)n4C3CCC(=O)NC3=O)c2)nn2c(C(=O)N[C@@H]3C[C@@H]3F)cnc12 (stereo partly drawn) [Example K254]")
"> 100 nM"
>>> measured_value("CNC(=O)c1cnc(Nc2ccc(C(=O)NCCCCCCc3cccc4c3n(C)c(=O)n4C3CCC(=O)NC3=O)cn2)cc1Nc1cccc(-c2ncc(F)cn2)c1OC (stereo not drawn) [Example K115]")
"< 1 nM"
>>> measured_value("CNc1cc(Nc2cccn(-c3ccc(C(=O)N4CCN(CC5CCN(c6ccc(-c7ccc8c(c7)n(C)c(=O)n8C7CCC(=O)NC7=O)cc6)CC5)CC4)cn3)c2=O)nn2c(C(=O)N[C@@H]3C[C@@H]3F)cnc12 (stereo partly drawn) [Example K374]")
"< 1 nM"
>>> measured_value("CNC(=O)c1cnc(Nc2ccc(CN(C)C3CCN(c4ccc5c(c4)n(C)c(=O)n5C4CCC(=O)NC4=O)C3)cn2)cc1Nc1cccc(-c2ncc(F)cn2)c1OC (stereo not drawn) [Example K170]")
"< 1 nM"
>>> measured_value("CNc1cc(-c2cccc(C(=O)NCCCCc3ccc4c(c3)n(C)c(=O)n4C3CCC(=O)NC3=O)c2)nn2c(C(=O)N[C@@H]3C[C@@H]3F)cnc12 (stereo partly drawn) [Example K307]")
"> 100 nM"
>>> measured_value("CNc1cc(Nc2cccn(C3CCN(C(=O)NCCCCc4ccc5c(c4)n(C)c(=O)n5C4CCC(=O)NC4=O)CC3)c2=O)nc2c(C(=O)N[C@@H]3C[C@@H]3F)cnn12 (stereo partly drawn) [Example K330]")
"> 100 nM"

Quick check: DC50 of CNc1cc(-c2cnn(C3CN(C(=O)NCCCCCCCCc4cccc5c4n(C)c(=O)n5C4CCC(=O)NC4=O)C3)c2)nn2c(C(=O)N[C@@H]3C[C@@H]3F)cnc12 (stereo partly drawn) [Example K319] ? > 100 nM

Quick check: DC50 of CNc1cc(Nc2cccn(-c3ccc(C(=O)NCCCCc4ccc5c(c4)n(C)c(=O)n5C4CCC(=O)NC4=O)cn3)c2=O)nn2c(C(=O)NC3CCC3)cnc12 (stereo not drawn) [Example K321] ? > 100 nM

Quick check: DC50 of O=C1CCN(c2cc(C(=O)N3CCC4(CC3)CN(Cc3ccc(-c5cccc6c5CCN6c5ccc6ncc(C(=O)NC7CC7)n6n5)nc3)C4)ccc2Cl)C(=O)N1 [Example K554] ? > 100 nM

Quick check: DC50 of CNc1cc(N2CCc3c(-c4ccc(CN5CC6(CCN(C(=O)c7ccc(Cl)c(N8CCC(=O)NC8=O)c7)CC6)C5)cn4)cccc32)nn2c(C(=O)N[C@@H]3C[C@@H]3F)cnc12 [Example K498] ? < 1 nM

Quick check: DC50 of CNc1cc(-c2cnn(C3CCN(C(=O)NCCCCCCCCc4ccc5c(c4)n(C)c(=O)n5C4CCC(=O)NC4=O)CC3)c2)nn2c(C(=O)N[C@@H]3C[C@@H]3F)cnc12 (stereo partly drawn) [Example K296] ? > 100 nM

Quick check: DC50 of CNc1cc(Nc2cccn(-c3ccc(C(=O)NC4CCC(C(=O)N5CCC6(CN(CC#Cc7ccc8c(c7)n(C)c(=O)n8C7CCC(=O)NC7=O)C6)C5)CC4)cn3)c2=O)nn2c(C(=O)N[C@@H]3C[C@@H]3F)cnc12 (stereo partly drawn) [Example K444] ? 1 to 10 nM

###

- Test Target: TYK2 (Homo sapiens, UniProt P29597)
- Protocol: TYK2 degradation MSD assay in human PBMC cells
- Format: cell-based
- Set-up: endogenous in cells; host or cells: human PBMC
- Details: 4 to 24 hours incubation, read-out: TYK2 MSD DC50 rating in human PBMC
Metric: DC50

The following molecules have reported results that may help.
>>> measured_value("CNc1cc(Nc2cccc(-c3ccc(CN4CCN(c5cccc6c5n(C)c(=O)n6C5CCC(=O)NC5=O)CC4)cn3)c2)nn2c(C(=O)N[C@@H]3C[C@@H]3F)cnc12 (stereo partly drawn)")
"> 100 nM"
>>> measured_value("CNC(=O)c1cnc(Nc2ccc(CN(C)C3CN(c4cccc5c4n(C)c(=O)n5C4CCC(=O)NC4=O)C3)cn2)cc1Nc1cccc(-c2ncc(F)cn2)c1OC (stereo not drawn)")
"< 1 nM"

Let us examine a further case.
Quick check: DC50 of CNc1cc(Nc2cccn(-c3ccc(C(=O)N(C)CCCOCCCc4cccc5c4n(C)c(=O)n5C4CCC(=O)NC4=O)cn3)c2=O)nn2c(C(=O)N[C@@H]3C[C@@H]3F)cnc12 (stereo partly drawn) ? 1 to 10 nM
